- testedTarget: Mu-type opioid receptor (Homo sapiens)
- Sequence (P35372 whole entry): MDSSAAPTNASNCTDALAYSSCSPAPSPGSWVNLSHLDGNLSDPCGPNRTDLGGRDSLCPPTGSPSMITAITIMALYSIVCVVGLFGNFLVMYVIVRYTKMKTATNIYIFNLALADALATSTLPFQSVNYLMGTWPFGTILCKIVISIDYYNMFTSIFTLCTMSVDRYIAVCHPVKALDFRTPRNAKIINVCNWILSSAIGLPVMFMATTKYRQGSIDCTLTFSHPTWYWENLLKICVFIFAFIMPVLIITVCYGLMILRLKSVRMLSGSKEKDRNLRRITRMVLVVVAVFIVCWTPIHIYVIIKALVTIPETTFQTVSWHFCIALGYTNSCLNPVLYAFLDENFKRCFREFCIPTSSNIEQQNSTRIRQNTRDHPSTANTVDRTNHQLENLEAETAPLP
- method: Agonist activity at human Rluc8-tagged MOP expressed in HEK293 cells coexpressing eYFP-tagged beta-arrestin-2 assessed as beta-arrestin-2 recruitment incubated for 5 mins by luminometer analysis relative to control
- Assay type: functional, cell-based
- settings: filed as agonist
Numbered stars: 1 amine (or outer) side, 2 acyl side, 3 side chain; on linkers, the order of the positions; unused ones are H or OH. Square brackets hold non-standard residues; d marks the D form. Peptide text beside a SMILES is read from it. Nva(5-(4-Bn-piperidin-1-yl)) = N[C@@H](CCCN1CCC(Cc2ccccc2)CC1)C(=O)O; X2 = O=C1[C@@H](N[*:1])Cc2ccccc2CN1CCCC(=O)[*:2]; X1 = O=C1[C@@H](N[*:1])Cc2ccccc2CN1CCC(=O)[*:2]; Dmt = Cc1cc(O)cc(C)c1C[C@H](N)C(=O)O
Outcome label depends on Emax relative to 60%: at/above gives met, below gives not met.

Worked examples, 7 compounds total:
compound	qualitativeLabel
Cc1cc(O)cc(C)c1C[C@H](N)C(=O)N[C@H](CCCNC(=N)N)C(=O)N[C@H]1Cc2ccccc2CN(CCCC(=O)N[C@@H](CCCN2CCC(Cc3ccccc3)CC2)C(=O)N[C@H](C(N)=O)C(C)C)C1=O (H-[Dmt][dR][X2][Nva(5-(4-Bn-piperidin-1-yl))]V-NH2)	not met
Cc1cc(O)cc(C)c1C[C@H](N)C(=O)N[C@H](CCCNC(=N)N)C(=O)N[C@@H](Cc1ccccc1)C(=O)N(C)[C@@H](C)C(=O)N[C@@H](CCCN1CCC(Cc2ccccc2)CC1)C(=O)N[C@@H](Cc1ccccc1)C(N)=O	met
Cc1cc(O)cc(C)c1C[C@H](N)C(=O)N[C@H](CCCNC(=N)N)C(=O)N[C@H]1Cc2ccccc2CN(CCC(=O)N[C@@H](CCCN2CCC(Cc3ccccc3)CC2)C(=O)N[C@@H](Cc2ccccc2)C(N)=O)C1=O	not met
Cc1cc(O)cc(C)c1C[C@H](N)C(=O)N[C@H](CCCNC(=N)N)C(=O)N[C@H]1Cc2ccccc2CN(CCC(=O)N[C@@H](CCCN2CCC(Cc3ccccc3)CC2)C(=O)N[C@@H](Cc2ccc(O)cc2)C(N)=O)C1=O (H-[Dmt][dR][X1][Nva(5-(4-Bn-piperidin-1-yl))]Y-NH2)	met
Cc1cc(O)cc(C)c1C[C@H](N)C(=O)N[C@H](CCCNC(=N)N)C(=O)N[C@H]1Cc2ccccc2CN(CCC(=O)N[C@H](CCCN2CCC(Cc3ccccc3)CC2)C(=O)N[C@@H](Cc2ccccc2)C(N)=O)C1=O	met
Cc1cc(O)cc(C)c1C[C@@H](N)C(=O)N[C@H](CCCNC(=N)N)C(=O)N[C@@H](Cc1ccccc1)C(=O)N(C)CCC(=O)N[C@@H](CCCN1CCC(Cc2ccccc2)CC1)C(=O)N[C@@H](Cc1ccccc1)C(N)=O	not met
CC[C@H](C)[C@H](NC(=O)[C@H](CCCN1CCC(Cc2ccccc2)CC1)NC(=O)CCN1Cc2ccccc2C[C@H](NC(=O)[C@@H](CCCNC(=N)N)NC(=O)[C@@H](N)Cc2c(C)cc(O)cc2C)C1=O)C(N)=O (H-[Dmt][dR][X1][Nva(5-(4-Bn-piperidin-1-yl))]I-NH2)	not met

Let's switch to this compound now.
Q: Does the compound Cc1cc(O)cc(C)c1C[C@H](N)C(=O)N[C@H](CCCNC(=N)N)C(=O)N[C@H]1Cc2ccccc2CN(CCC(=O)N[C@@H](CCCN2CCC(Cc3ccccc3)CC2)C(=O)N[C@H](C(N)=O)C(C)C)C1=O (H-[Dmt][dR][X1][Nva(5-(4-Bn-piperidin-1-yl))]V-NH2) have recorded Emax that is 60% or more?
Ans: not met
